# assay.name: NCI Yeast Anticancer Drug Screen. Data for the mlh1 rad18 strain (AID 175)
# test.context: S. cerevisiae mlh1 rad18 strain growth inhibition; at 50.0 µM (retest, dose inferred, filed as 5.0); active compounds read high
This is part of a sample that, as a whole, favours compounds with a hit. Of some 79,000 tested, about 15% had one in any assay.
growth inhibition values, listed per item

>  <compound>
Cc1nnc2nc3c(nn12)c1ccccc1n3C

>  <unit.spec>
%

>  <growth inhibition>
-77

$$$$
>  <compound>
O=C(O)/C=C\c1cc2ccccc2c2ccccc12

>  <unit.spec>
%

>  <growth inhibition>
99

$$$$
>  <compound>
O=C(Sc1ccccc1)C1OC12CCCCC2 (stereo not drawn)

>  <unit.spec>
%

>  <growth inhibition>
-90

$$$$
